Molecular target: DLG1_1, Q12959
Assay: holdup assay
Design: key: below the threshold = too weak to quantify, mostly under pKd 3.1 to 4
Settings: plain residues with an end cap or a label only (N-terminal biotin on a linker: ado-ado)

{"columns": ["binder", "pKd"],
 "data": [
  ["PEYLGLDVPV [ERBB2, P04626]", "below the threshold"],
  ["LPAHHNATRL [SLC34A1, Q06495;Q06495-1]", "below the threshold"],
  ["VKPQVSESKL [ACOT8, O14734]", "below the threshold"],
  ["RRRESYSTTV [EVI5, O60447]", 5.66],
  ["PPYRHRNTVV [ERBB4, Q15303]", 4.83],
  ["TSQESEDTYL [TBC1D10A, Q9BXI6]", "below the threshold"],
  ["PLSPEQPTKL [TRIM50, Q86XT4]", "below the threshold"],
  ["LKVPPEERLI [CRB2, Q5IJ48]", "below the threshold"]
]}
